Can you tell me LD50 for the items I'm about to list?
- method: Acute toxicity in mice
- Format: in vivo
- condition.description: mouse, in vivo, iv, mice, i.v. bolus; read-out: LD50 i.v. bolus
Answers are plain numbers, in mg/kg.

The reported LD50 of the compound "N=C(N)NCCC[C@@H](C=O)NC(=O)[C@@H]1CCCN1C(=O)[C@H](N)Cc1ccccc1.O=S(=O)(O)O" was 45

Okay, next one:
Memo: "CC(=O)O.N=C(N)NCCC[C@@H](C=O)NC(=O)[C@@H]1CCCN1C(=O)[C@H](N)Cc1ccccc1" , reported LD50: 9

---

- Tested on: thrombin time in the whole blood
- method: In vivo trial, dog: dose required to prolong thrombin time in the whole blood 1.5 to 2.5 fold
- condition.description: p.o., thrombin time in whole blood prolonged 1.5 to 2.5 fold
measured.quantity: Dose required for therapeutic effect, p.o., dog (mg/kg)
Numbers only, in mg/kg.

The following compounds have reported results that may help.
Lab book: Dose required for therapeutic effect, p.o., dog of "N=C(N)NCCC[C@@H](C=O)NC(=O)[C@@H]1CCCN1C(=O)[C@H](N)Cc1ccccc1.O=S(=O)(O)O" noted as 25

Short answer for "N=C(NCCC[C@@H](C=O)NC(=O)[C@@H]1CCCN1C(=O)[C@H](N)Cc1ccccc1)NC(=O)O" : Dose required for therapeutic effect, p.o., dog was 50

Data point: CC(=O)O.Cl.N=C(N)NCCC[C@@H](C=O)NC(=O)[C@@H]1CCCN1C(=O)[C@H](N)Cc1ccccc1 [D-Phe-Pro-Arg-H.2HCl] ; Dose required for therapeutic effect, p.o., dog = 100

***
response.value for "CC(=O)O.N=C(N)NCCC[C@@H](C=O)NC(=O)[C@@H]1CCCN1C(=O)[C@H](N)Cc1ccccc1" (field: Dose required for therapeutic effect, p.o., dog) = 100

---

- method: Acute toxicity at intravenous infusion in the rabbit
- condition.description: in vivo
measured.quantity: LD50 (mg/kg)
Give bare numbers, in mg/kg.

molecule "N=C(N)NCCC[C@@H](C=O)NC(=O)[C@@H]1CCCN1C(=O)[C@H](N)Cc1ccccc1.O=S(=O)(O)O" , LD50 observed: 58

---

Please provide measured LD50 for the entries that follow.
- method: Acute toxicity in mice
- Format: in vivo
- condition.description: mouse, in vivo, po, mice, p.o.; read-out: LD50 p.o.

"N=C(NCCC[C@@H](C=O)NC(=O)[C@@H]1CCCN1C(=O)[C@H](N)Cc1ccccc1)NC(=O)O" has a reported LD50 of 1200 mg/kg

molecule "CC(=O)O.N=C(N)NCCC[C@@H](C=O)NC(=O)[C@@H]1CCCN1C(=O)[C@H](N)Cc1ccccc1" , LD50 observed: 960 mg/kg

Others:
Summary for this molecule, "N=C(N)NCCC[C@@H](C=O)NC(=O)[C@@H]1CCCN1C(=O)[C@H](N)Cc1ccccc1.O=S(=O)(O)O" : LD50 is > 2000 mg/kg
